system_tested: UniProtKB Q7ZJM1
Sequence (Q7ZJM1 whole entry): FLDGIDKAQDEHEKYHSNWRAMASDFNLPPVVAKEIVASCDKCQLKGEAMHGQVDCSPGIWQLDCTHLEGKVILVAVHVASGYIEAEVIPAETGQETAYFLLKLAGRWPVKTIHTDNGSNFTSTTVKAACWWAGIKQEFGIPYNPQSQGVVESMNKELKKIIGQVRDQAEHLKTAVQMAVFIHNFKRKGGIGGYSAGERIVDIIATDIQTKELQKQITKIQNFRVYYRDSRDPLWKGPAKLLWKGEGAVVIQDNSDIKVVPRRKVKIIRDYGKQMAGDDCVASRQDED
outcome_measure: pIC50
Just the number, please; pIC50 means minus log10 of the concentration in mol/L.

Just so you know, measured pIC50 for COc1cc(/C=C/C(=O)CC(=O)/C=C/c2ccc(O)c(OC)c2)ccc1O [CURCUMIN] came out at 4.40

---

system_tested: Protease (Human immunodeficiency virus 1)
Sequence (Q9YQ12 whole entry): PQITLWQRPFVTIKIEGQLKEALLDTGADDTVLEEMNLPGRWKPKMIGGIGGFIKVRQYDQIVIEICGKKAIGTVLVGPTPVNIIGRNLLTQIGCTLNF
procedure_details: Inhibition of recombinant HIV1 protease after 30 mins by reverse phase HPLC
outcome_measure: IC50 (µM)
# output: bare number, implied unit µM

Notebook: CC(C)=CCC/C(C)=C/CC/C(=C/Cc1cc(O)ccc1O)C(=O)O , IC50 read as 2.9

// sample CC(C)=CCC/C(C)=C/CCC1=C[C@@H](c2cc(O)ccc2O)OC1=O , its IC50 was 21.9
